B1: Gamma-crystallin S, residues 96 to 176; numbered along this chain, P22914 (parent)
chain: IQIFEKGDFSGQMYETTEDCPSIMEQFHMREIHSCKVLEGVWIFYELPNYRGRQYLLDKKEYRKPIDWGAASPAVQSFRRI

- Variants of: B1
- Test: abundance fitness (aPCA) (normalised: wild type 0, dead -1); higher = more abundant; growth selection in yeast, the domain comes from the species named
- Condition notes: Homo sapiens
The following variants are listed with their measured abundance fitness values.
Keep it simple and answer with nothing but the number.

Prompt line: Looking for the measured abundance fitness of "E18D" , can you help?
Response line: -0.153

Prompt line: Requested field: abundance fitness. Item: "Y14C"
Response line: -0.027

Prompt line: Consider the variant "G52K" and give its measured abundance fitness.
Response line: -0.438

Prompt line: // query abundance fitness value for entry "F27Y"
Response line: -0.011

Prompt line: What value of abundance fitness has been recorded for this entry: "S34Q"
Response line: -0.485

Prompt line: Recorded abundance fitness for "S22H" , please?
Response line: -0.01

Prompt line: Record request: abundance fitness value, item "S22G"
Response line: -0.015

Prompt line: If you can, please state the reported abundance fitness value of "T17P" .
Response line: 0.075

Others:
Prompt line: abundance fitness lookup needed for "G69C" , thanks.
Response line: -0.242

Prompt line: Recorded abundance fitness of "I23S" , please.
Response line: -0.038

Prompt line: Need abundance fitness, item "R80L"
Response line: 0.02

Data credit: the Human Domainome abundance scans (Beltran et al. 2025)
